- ASSAY_TARGET: human plasma kallikrein (Homo sapiens, UniProt P03952)
- Sequence (P03952 391-638 limits assumed): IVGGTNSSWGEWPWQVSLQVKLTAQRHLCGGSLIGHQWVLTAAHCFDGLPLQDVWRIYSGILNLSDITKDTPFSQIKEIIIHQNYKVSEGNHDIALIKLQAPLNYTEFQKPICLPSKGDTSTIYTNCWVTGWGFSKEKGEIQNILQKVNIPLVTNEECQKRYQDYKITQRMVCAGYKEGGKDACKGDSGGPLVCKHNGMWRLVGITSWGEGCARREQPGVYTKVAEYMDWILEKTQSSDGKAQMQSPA
- Sequence (P03952 20-390 partner limits assumed): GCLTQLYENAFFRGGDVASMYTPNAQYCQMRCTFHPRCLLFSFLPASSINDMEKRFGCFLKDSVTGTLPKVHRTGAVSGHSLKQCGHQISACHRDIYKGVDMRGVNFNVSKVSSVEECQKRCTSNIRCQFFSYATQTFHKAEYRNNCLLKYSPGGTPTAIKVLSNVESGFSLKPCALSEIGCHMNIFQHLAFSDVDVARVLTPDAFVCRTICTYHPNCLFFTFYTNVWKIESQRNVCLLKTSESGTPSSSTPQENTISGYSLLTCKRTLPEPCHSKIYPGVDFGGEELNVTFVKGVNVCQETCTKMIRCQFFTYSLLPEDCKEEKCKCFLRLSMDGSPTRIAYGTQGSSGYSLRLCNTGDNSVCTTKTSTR
- ASSAY_OVERVIEW: Determination of the plasma kallikrein activity (fluorogenic peptide substrate, AMC cleavage)
- CONDITION_SUMMARY: plasma kallikrein from Kordia 0.6 nM; substrate H-Pro-Phe-Arg-AMC 10 μM; 30 min at 22° C.; in some cases averages from multiple determinations
MEASURE_NAME: pIC50
pIC50 is a log-scale quantity: -log10 of the concentration expressed in molar.

Completed entries (count: 8):
{"COMPOUND": "COc1cn([C@@H](CCOC(C)(C)C)C(=O)Nc2ccc(C(=O)O)s2)c(=O)cc1-c1cc(Cl)ccc1OCC(F)(F)F (single isomer, unassigned)", "MEASURE_NAME": "pIC50", "VALUE_OBSERVED": 8.05}
{"COMPOUND": "COCCC(C(=O)Nc1ccc(C(=O)O)cc1)n1cc(OC)c(-c2cc(Cl)ccc2OCC(F)(F)F)cc1=O (single isomer, unassigned) [Example 2]", "MEASURE_NAME": "pIC50", "VALUE_OBSERVED": 7.82}
{"COMPOUND": "COc1cn(C(CCOC(C)(C)C)C(=O)Nc2ccc(C(=O)O)cc2)c(=O)cc1-c1cc(Cl)ccc1OCC(F)(F)F (racemic) [Example 7]", "MEASURE_NAME": "pIC50", "VALUE_OBSERVED": 7.47}
{"COMPOUND": "COc1cn(C(C[C@@H]2CCCCO2)C(=O)Nc2ccc(C(N)=O)c(F)c2)c(=O)cc1-c1cc(Cl)ccc1OCC(F)(F)F (stereo partly shown)", "MEASURE_NAME": "pIC50", "VALUE_OBSERVED": 6.68}
{"COMPOUND": "COc1cn(C(CCOC2(C)CCC2)C(=O)Nc2ccc3nn(C)cc3c2)c(=O)cc1-c1cc(Cl)ccc1OCC(F)(F)F (racemic)", "MEASURE_NAME": "pIC50", "VALUE_OBSERVED": 7.24}
{"COMPOUND": "COc1cn(C(Cc2ccn(C)n2)C(=O)Nc2ccc3nn(C)cc3c2)c(=O)cc1-c1cc(Cl)ccc1OCC(F)(F)F (racemic)", "MEASURE_NAME": "pIC50", "VALUE_OBSERVED": 7.35}
{"COMPOUND": "COc1cn(C(CCOC2(C)CCC2)C(=O)Nc2ccc(C(N)=O)c(F)c2)c(=O)cc1-c1cc(Cl)ccc1OCC(F)(F)F (racemic)", "MEASURE_NAME": "pIC50", "VALUE_OBSERVED": 6.96}
{"COMPOUND": "COc1cn(C(CC2COCCO2)C(=O)Nc2ccc(C(=O)O)cc2)c(=O)cc1-c1cc(Cl)ccc1OCC(F)(F)F (stereo not shown) [Example 17]", "MEASURE_NAME": "pIC50", "VALUE_OBSERVED": 7.33}

Look up and state reported pIC50 for COc1cn(C(CC2COCCO2)C(=O)Nc2ccc3nn(C)cc3c2)c(=O)cc1-c1cc(Cl)ccc1OCC(F)F (stereo not shown)
7.18

Look up and state reported pIC50 for COc1cn(C(CCOC(C)(C)C)C(=O)Nc2ccc3nn(C)cc3c2)c(=O)cc1-c1cc(Cl)ccc1OCC(F)(F)F (racemic)
7.24

Look up and state reported pIC50 for COc1cn(C(C[C@@H]2CCCCO2)C(=O)Nc2ccc3nn(C)cc3c2)c(=O)cc1-c1cc(Cl)ccc1OCC(F)(F)F (stereo partly shown)
7.19

Look up and state reported pIC50 for COc1cn(C(CCOC(C)(C)C)C(=O)Nc2ccc(C(N)=O)nc2)c(=O)cc1-c1cc(Cl)ccc1OCC(F)(F)F (racemic)
7.06

Look up and state reported pIC50 for COc1cn(C(Cc2ccn(C)n2)C(=O)Nc2ccc(C(N)=O)c(F)c2)c(=O)cc1-c1cc(Cl)ccc1OCC(F)(F)F (racemic)
7.17
